- System: LXRa:RXRa (NR concentration 270 nM, RXRa partner concentration 90 nM)
- testMethodNotes: PBM binding z-score (relative to random genomic background probes); higher = stronger binding; sequences stand for … in GC…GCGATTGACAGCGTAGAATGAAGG
testReadout: PBM binding z-score
Could you respond with only the numeric value?

The examples below pair each entry with its known result.
In [3]: df
Out[3]:
                       sequencestring                           targetundertest          testreadout  datavalue
0  CCGACTGGGGCGAAGGTTACCATACTCAGTACGA  LXRa:RXRa (NR concentration 270 nM, RXRa partner concentration 90 nM)  PBM binding z-score     -0.108
1  CAAACTAGGTCACCGGAAGGTCTAAGTCCGCATG  LXRa:RXRa (NR concentration 270 nM, RXRa partner concentration 90 nM)  PBM binding z-score       3.38
2  GATACAGGGTCAAGTCCAGAGTACGCGTATTGAT  LXRa:RXRa (NR concentration 270 nM, RXRa partner concentration 90 nM)  PBM binding z-score       4.84
3  GCATATAGGTAATCCAAGGTGAAAGTCCGATTGT  LXRa:RXRa (NR concentration 270 nM, RXRa partner concentration 90 nM)  PBM binding z-score       2.66
4  ATGTCTAGGTAACCAAGTTCAGTGAATGCCGAAC  LXRa:RXRa (NR concentration 270 nM, RXRa partner concentration 90 nM)  PBM binding z-score      0.708
5  CCTCAGAGGACAACAGGAGGTCAGAGCTGCCAGA  LXRa:RXRa (NR concentration 270 nM, RXRa partner concentration 90 nM)  PBM binding z-score       2.25

The reported value for CCTTCCGGGTCACGAGGTTATAGCACGACGAGCG in terms of PBM binding z-score is 4.51

The reported value for TCATATAGGTAAAAGGTGAAACTCGGTGTGGTAA in terms of PBM binding z-score is 2.26

----------
Each item that follows carries a reported PBM binding z-score.
- Test system: RARg:RXRa (NR concentration 270 nM, RXRa partner concentration 90 nM)
- testMethodNotes: PBM binding z-score (relative to random genomic background probes); higher = stronger binding; sequences stand for … in GC…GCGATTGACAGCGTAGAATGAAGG
Could you respond with only the numeric value?

>>> df
                       sequencestring  datavalue
0  CCTATTGGGCCAAGGTCATTGATCAGTCAAAGCA       3.81
1  CGAACTAGGTCATTGACAGGAAAGTGAATAGTAA       3.65
2  TTTATTAGTTGATTAGGGCAACCGAAACAGCGGA      0.811

Now turn to the next sequence.
The reported value for ATATGTAGGTTAAGGGTCATTCGGGTTGGTTCGC in terms of PBM binding z-score is 4.87

----------
- Tested on: PPARg:RXRa DBDmut IVT, anti-RXR (DBD mutation: RXRa K156A/R161A, NR concentration 270 nM, RXRa partner concentration 90 nM)
- testMethodNotes: PBM binding z-score (relative to random genomic background probes); higher = stronger binding; sequences stand for … in GC…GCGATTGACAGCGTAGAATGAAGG
Criterion: PBM binding z-score meeting or surpassing 1. Met: t. Not met: f.

These recorded examples may help you get a feel for the data.
                       sequencestring  assignedlabel
0  ATCGAAAGGTCGACGAGGTGAGTTTACACCGTTT              f
1  TCTAGTTGGTCACTGAGGTCACACACGACGGGTA              t
2  TAGCCTAGCTCATGCGGGCCAGTATAGTGTCGGC              f

I'd appreciate it if you could say whether ACTAGCAGGCCAGGGGTCACTCAAGATTAGTCCG has PBM binding z-score at least equal to 1.
f

I'd appreciate it if you could say whether GCGACTGGGGCAAAGCAGGTTACAATAAGGTTGG has PBM binding z-score at least equal to 1.
t

I'd appreciate it if you could say whether ATCTCTAGGTAAGACTCAGTTCAGTGAAGAACGC has PBM binding z-score at least equal to 1.
t

I'd appreciate it if you could say whether CCGACTGGGGCAAAGGTTACCCTACTCAGTACGA has PBM binding z-score at least equal to 1.
t

I'd appreciate it if you could say whether CAAACTATGTCAAAGGTCAAAGTCGAGCCAACCA has PBM binding z-score at least equal to 1.
t

----------
Each item that follows carries a reported PBM binding z-score.
- Tested on: RXRa DBDmut IVT, anti-RXR (DBD mutation: RXRa K156A/R161A, NR concentration 90 nM)
- testMethodNotes: PBM binding z-score (relative to random genomic background probes); higher = stronger binding; sequences stand for … in GC…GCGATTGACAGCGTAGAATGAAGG
Could you respond with only the numeric value?

In [3]: df
Out[3]:
                       sequencestring  datavalue
0  ACCTCTAGGTAACAAGTTCAGTGAAAGAGAGGAC      0.979
1  AATACAGGGTCACTAGTCCAGAGTAGGTACGAAT        2.7
2  GCTATTAGTTTAAAGGGCAACCGAATGATTCTCG       1.56

Now turn to the next sequence.
// sequence TTACCAAGGTGAGCTGAGGTCGTTGAGCCAACTC , assay RXRa DBDmut IVT, anti-RXR (DBD mutation: RXRa K156A/R161A, NR concentration 90 nM), PBM binding z-score value: -0.158

----------
- Tested on: LXRb:RXRa (NR concentration 270 nM, RXRa partner concentration 90 nM)
- testMethodNotes: PBM binding z-score (relative to random genomic background probes); higher = stronger binding; sequences stand for … in GC…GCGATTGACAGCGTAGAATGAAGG
testReadout: PBM binding z-score
Could you respond with only the numeric value?

>>> print(df.to_string())
                       sequencestring                           targetundertest  datavalue
0  ACATGTAGGTTAAGGGTCATTCAGGTTGGTTCGC  LXRb:RXRa (NR concentration 270 nM, RXRa partner concentration 90 nM)        4.5

The reported value for CAAGCTAGGTCACAGAGGTCAAAGTCCGTGCGTA in terms of PBM binding z-score is 6.28

The reported value for CCTACTGGGCCAAGGTGATTGATCAGTCAAAGCA in terms of PBM binding z-score is -0.722

The reported value for TAGCCAAGGTCATGCGGGCCAGTATAGTGTCGGC in terms of PBM binding z-score is 3.87

The reported value for CCGACTAGGGCAAGGTTACCATAACGCACAGCCA in terms of PBM binding z-score is 0.701

The reported value for GGAACGACGGCAAAGTTGATAGCATCTGTCGACG in terms of PBM binding z-score is -0.755

The reported value for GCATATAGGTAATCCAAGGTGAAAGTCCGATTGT in terms of PBM binding z-score is 0.738

The reported value for TTACCAAGGTGAAAGCTCGTTGATGCACGCCTTG in terms of PBM binding z-score is -0.367

The reported value for ATCTCTAGGTAACAAGTTCAGCGAAAGAGAGGAC in terms of PBM binding z-score is 0.934

The reported value for TCATATTGGTAATACAGGTGAAAGTCGGCATCTA in terms of PBM binding z-score is 1.2

The reported value for TCATATAGGTAATACAGGTGAATGTCGGCATCTA in terms of PBM binding z-score is 0.986

The reported value for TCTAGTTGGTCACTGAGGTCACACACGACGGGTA in terms of PBM binding z-score is 3.59

The reported value for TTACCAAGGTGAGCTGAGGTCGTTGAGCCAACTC in terms of PBM binding z-score is 0.809

The reported value for ATCTCTAGGTAAAAGTTAAGTGAATCCCGAGGAT in terms of PBM binding z-score is -0.0735

The reported value for GGAACGAGGGCATTGGAGTTGATAGCATGGCGAT in terms of PBM binding z-score is -0.0971

The reported value for CCGACTGGTGCATAAGGTTACCATAAGCCAGCCC in terms of PBM binding z-score is 0.722

The reported value for TCAATGAGGTTATAAGATCAGGGAACGTTGCAAA in terms of PBM binding z-score is 1.39

The reported value for CCAGACAGGGGAGAAGGTAACTCAGCCTCGATTA in terms of PBM binding z-score is -0.0664

The reported value for TTACCAAGGTGAAGGTCGTTAATCCCTCTGTAGA in terms of PBM binding z-score is 1.22

The reported value for ATATGTAGGTTACATCCGGATCATTCAGGCTATG in terms of PBM binding z-score is 1.65

The reported value for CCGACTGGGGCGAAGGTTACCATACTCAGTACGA in terms of PBM binding z-score is 0.654

The reported value for CCGACTGGGGCAAGGTTACCATTACGCACAGCCA in terms of PBM binding z-score is 0.492

The reported value for CGTCCAAGGTCAGCAGATCAGTGAAAGCGACGTG in terms of PBM binding z-score is 2.21
